The values you see were collected from ChEMBL document CHEMBL3112528.

Test: Volume of distribution at steady state in rat at 0.5 mg/kg, iv and 1 mg/kg, po
Assay type: ADME, organism-based
Details: in vivo, read-out: Vdss
measurement.label: Vd (L/kg)
Only the number, expressed in L/kg, is required.

Fill in: Vd of `CCOc1ccc(F)c([C@@H](Nc2ccc3c(N)nccc3c2)C(=O)N2CCC[C@@H]2c2cc(NC(=O)OC)ccc2S(=O)(=O)C(C)C)c1` is ___
5.6

###

Assay: Half life in rat at 0.5 mg/kg, iv and 1 mg/kg, po
Assay type: ADME, organism-based
Conditions: in vivo
measurement.label: half-life (h)
Only the number, expressed in h, is required.

Fill in: half-life of `CCOc1ccc(F)c([C@@H](Nc2ccc3c(N)nccc3c2)C(=O)N2CCC[C@@H]2c2cc(NC(=O)OC)ccc2S(=O)(=O)C(C)C)c1` is ___
4.9

###

Assay: Half life in dog at 0.2 mg/kg, iv and 1 mg/kg, po
Format: ADME, organism-based, Canis lupus familiaris
Conditions: in vivo
measurement.label: half-life (h)
Only the number, expressed in h, is required.

Fill in: half-life of `CCOc1ccc(F)c([C@@H](Nc2ccc3c(N)nccc3c2)C(=O)N2CCC[C@@H]2c2cc(NC(=O)OC)ccc2S(=O)(=O)C(C)C)c1` is ___
2.2

###

Test: Oral bioavailability in rat at 1 mg/kg
Type: ADME, organism-based
Details: in vivo
Quick reference for bioavailability among some compounds
Only the number, expressed in %, is required.

molecular.string: CCOc1ccc(F)c([C@@H](Nc2ccc3c(N)nccc3c2)C(=O)N2CCC[C@@H]2c2cc(NC(=O)OC)ccc2S(=O)(=O)C(C)C)c1
measurement.label: bioavailability
result.units: %
number: 7.9

Fill in: bioavailability of `CCOc1cc([C@@H](Nc2ccc3c(N)nccc3c2)C(=O)NCc2ccccc2)ccc1OC(C)C` is ___
31

###

Assay: Half life in dog at 0.2 mg/kg, iv
Assay type: ADME, organism-based, Canis lupus familiaris
Parameters: dose 0.2 mg/kg, route intravenous
Conditions: in vivo
measurement.label: half-life
Units required after the number.

Fill in: half-life of `CCS(=O)(=O)c1ccccc1[C@H]1[C@@H](C(=O)O)CCN1C(=O)[C@H](Nc1ccc2c(N)nccc2c1)c1ccc(F)c(OC)c1` is ___
1.1 h

###

Experiment: Volume of distribution at steady state in dog at 0.2 mg/kg, iv
Type: ADME, organism-based, Canis lupus familiaris
Set-up: dose 0.2 mg/kg, route intravenous
Details: in vivo, read-out: Vdss
measurement.label: Vd (L/kg)
Only the number, expressed in L/kg, is required.

Fill in: Vd of `CCS(=O)(=O)c1ccccc1[C@H]1[C@@H](C(=O)O)CCN1C(=O)[C@H](Nc1ccc2c(N)nccc2c1)c1ccc(F)c(OC)c1` is ___
0.65

###

Test: Volume of distribution at steady state in dog at 0.2 mg/kg, iv and 1 mg/kg, po
Format: ADME, organism-based, Canis lupus familiaris
Settings: in vivo, read-out: Vdss
measurement.label: Vd
Units required after the number.

Fill in: Vd of `CCOc1ccc(F)c([C@@H](Nc2ccc3c(N)nccc3c2)C(=O)N2CCC[C@@H]2c2cc(NC(=O)OC)ccc2S(=O)(=O)C(C)C)c1` is ___
4.2 L/kg
